Tested on: H929 human cancer cell lines
Experiment: Cellular viability / proliferation (Cell TiterGlo, 72 h)
Format: cell-based
Settings: Homo sapiens, NCI-H929, 72 h, read-out: GI50 on cellular proliferation of H929 human cancer cell lines, H929 cells, 72 h, Cell TiterGlo, 10% FBS
Label criterion met when GI50 < 2000 nM; otherwise criterion not met.

[
  {
    "compound": "Cc1cc(OCCCc2c3n(c4c(-c5c(C)nn(C)c5C)c(Cl)ccc24)[C@H](C)CN(c2cn(C)c4ccc(-c5cnccn5)cc24)C3=O)cc(C)c1Cl",
    "studySystem": "H929 human cancer cell lines",
    "classAssignment": "criterion met"
  },
  {
    "compound": "Cc1cc(OCCCc2c3n(c4c(-c5c(C)nn(C)c5C)c(Cl)ccc24)[C@H](C)CN(c2cc(OC4CC[N+](C)(C)C4)cc4cc(C(=O)O)n(C)c24)C3=O)cc(C)c1Cl (some centres unmarked) [Example 513, 2,2,2-trifluoroacetate]",
    "studySystem": "H929 human cancer cell lines",
    "classAssignment": "criterion not met"
  },
  {
    "compound": "Cc1cc(OCCCc2c3n(c4c(-c5c(C)nn(C)c5C)c(Cl)ccc24)[C@H](C)CN(c2cn(CCN4CCN(C)CC4)c4ccc(-c5ncn(C)n5)cc24)C3=O)cc(C)c1Cl",
    "studySystem": "H929 human cancer cell lines",
    "classAssignment": "criterion met"
  },
  {
    "compound": "Cc1cc(OCCCc2c3n(c4c(-c5c(C)ncnc5C)c(Cl)ccc24)[C@H](C)CN(c2cn(C)c4ncc(C(=O)O)cc24)C3=O)cc(C)c1Cl",
    "studySystem": "H929 human cancer cell lines",
    "classAssignment": "criterion met"
  },
  {
    "compound": "Cc1cc(OCCCc2c3n(c4c(-c5c(C)n[nH]c5C)c(Cl)ccc24)[C@H](C)CN(c2cc(C(=O)O)cc4c2ccn4C)C3=O)cc(C)c1Cl",
    "studySystem": "H929 human cancer cell lines",
    "classAssignment": "criterion not met"
  },
  {
    "compound": "Cc1cc(OCCCc2c3n(c4c(-c5c(C)nn(C)c5C)c(Cl)ccc24)[C@H](C)CN(c2cc(NCCN4CCCC4)cc4c(C(=O)O)cn(C)c24)C3=O)cc(C)c1Cl",
    "studySystem": "H929 human cancer cell lines",
    "classAssignment": "criterion not met"
  },
  {
    "compound": "Cc1cc(OCCCc2c3n(c4c(-c5c(C)nc(CN6CCCC6)nc5C)c(Cl)ccc24)[C@H](C)CN(c2cn(C)c4ccc(C(=O)O)cc24)C3=O)cc(C)c1Cl",
    "studySystem": "H929 human cancer cell lines",
    "classAssignment": "criterion met"
  },
  {
    "compound": "COCCN(C)c1cc(N2C[C@@H](C)n3c(c(CCCOc4cc(C)c(Cl)c(C)c4)c4ccc(Cl)c(-c5c(C)nn(C)c5C)c43)C2=O)c2c(c1)cc(C(=O)O)n2C",
    "studySystem": "H929 human cancer cell lines",
    "classAssignment": "criterion met"
  },
  {
    "compound": "Cc1cc(OCCCc2c3n(c4c(-c5c(C)nn(C)c5C)c(Cl)ccc24)[C@H](C)CN(c2cn(C)c4ncc(C(=O)O)cc24)C3=O)cc(C)c1Cl",
    "studySystem": "H929 human cancer cell lines",
    "classAssignment": "criterion met"
  }
]

Now let's try a different one.
Task item: hey, is GI50 for "Cc1cc(N2C[C@@H](C)n3c(c(CCCOc4cc(C)c(Cl)c(C)c4)c4ccc(Cl)c(-c5c(C)ncnc5C)c43)C2=O)c2c(c1)cc(C(N)=O)n2C" lower than 2000 nM or not?
Reply: criterion met
